subjectOfTest: human glucagon receptor (Homo sapiens, UniProt P47871)
Construct: expressed in transfected cells; host or cells: BHK (baby hamster kidney) cells
Sequence (P47871 26-477): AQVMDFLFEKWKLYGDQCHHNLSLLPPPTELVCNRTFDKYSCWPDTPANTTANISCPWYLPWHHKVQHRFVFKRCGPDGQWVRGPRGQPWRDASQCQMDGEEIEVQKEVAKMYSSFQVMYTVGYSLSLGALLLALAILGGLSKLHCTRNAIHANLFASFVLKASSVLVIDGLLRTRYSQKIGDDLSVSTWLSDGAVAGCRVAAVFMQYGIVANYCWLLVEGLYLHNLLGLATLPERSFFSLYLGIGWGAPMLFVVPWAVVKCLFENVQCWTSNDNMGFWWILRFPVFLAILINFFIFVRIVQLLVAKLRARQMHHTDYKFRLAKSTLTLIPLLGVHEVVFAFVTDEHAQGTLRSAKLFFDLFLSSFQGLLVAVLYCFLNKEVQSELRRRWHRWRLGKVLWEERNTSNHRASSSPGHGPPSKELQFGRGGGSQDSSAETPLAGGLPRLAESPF
experimentDescription: Glucagon Binding Assay (III)
conditionsUsed: BHK cell membranes, WGA SPA beads, 125I-glucagon; read-out: Glu Bd Assay (III) IC50
Experimental: BHK (baby hamster kidney cell line) cells were transfected with the human glucagon receptor and a membrane preparation of the cells was prepared. All steps in the membrane preparation were kept on ice or performed at 4° C. BHK cells were harvested and centrifuged. […] The glucagon binding assay was carried out in opti plates (Polystyrene Microplates, Packard). […] The opti plates were counted in a Topcounter. Non-specific binding was determined with 500 nM of glucagon.
Checkbox rule: IC50 lower than 600 nM = Met; IC50 not lower than 600 nM = Not met.

* CCCCC(CC)CN(Cc1ccc(C(=O)NCCC(=O)O)cc1)C(=O)Nc1ccc(SC)cc1 (stereo not shown) | Met

### Prompt Please let me know if O=C(Nc1nn[nH]n1)c1ccc(CN(CC(c2ccccc2)c2ccccc2)C(=O)c2cc(-c3ccc(Cl)cc3)cs2)cc1 shows IC50 below 600 nM.
### Response Not met

### Prompt Please let me know if Cc1ccc(NC(=O)N(Cc2ccc(C(=O)Nc3nn[nH]n3)cc2)c2ccc(C3CCCCC3)cc2)cc1Cl shows IC50 below 600 nM.
### Response Met

### Prompt Please let me know if CC(C)(C)c1ccc(N(Cc2ccc(C(=O)Nc3nn[nH]n3)cc2)C(=O)Nc2cccc(S(C)(=O)=O)c2)cc1 shows IC50 below 600 nM.
### Response Met

### Prompt Please let me know if CC(C)(C)C1CCC(N(Cc2ccc(C(=O)Nc3nn[nH]n3)cc2)C(=O)c2ccc(-c3ccccc3)cc2)CC1 (stereo not shown) shows IC50 below 600 nM.
### Response Met

### Prompt Please let me know if O=C(Nc1nn[nH]n1)c1ccc(CN(C(=O)CSCc2ccccc2)c2ccc(C3CCCCC3)cc2)cc1 shows IC50 below 600 nM.
### Response Not met

---

subjectOfTest: human glucagon receptor (Homo sapiens, UniProt P47871)
Construct: expressed in transfected cells; host or cells: BHK (baby hamster kidney) cells
experimentDescription: Glucagon Binding Assay (III)
conditionsUsed: BHK cell membranes, WGA SPA beads, 125I-glucagon; read-out: Glu Bd Assay (III) IC50
Checkbox rule: IC50 lower than 400 nM = t; IC50 not lower than 400 nM = f.

- CC(C)(C)C1CCC(N(Cc2ccc(C(=O)Nc3nn[nH]n3)cc2)C(=O)/C=C/c2cccc(Cl)c2)CC1 (stereo not drawn): t
- O=C(Nc1nn[nH]n1)c1ccc(CN(C(=O)c2ccc(OC(F)(F)F)cc2)c2ccc(C3CCCCC3)cc2)cc1: f
- CC(C)(C)C1CCC(N(Cc2ccc(C(=O)NCCC(=O)O)cc2)C(=O)Nc2ccccc2C(F)(F)F)CC1 (stereo not drawn): f
- O=C(O)CCNC(=O)c1ccc(CN(C(=O)Nc2cc(C(F)(F)F)cc(C(F)(F)F)c2)C2CCc3ccccc3C2)cc1 (stereo not drawn): f
- O=C(Nc1nn[nH]n1)c1ccc(CN(C(=O)Nc2ccc(F)c(C(F)(F)F)c2)c2ccc(C3=CCCCC3)cc2)cc1: t

### Prompt Please let me know if CC(C)(C)c1ccc(N(Cc2ccc(C(=O)Nc3nn[nH]n3)cc2)C(=O)Nc2cccc(C(N)=O)c2)cc1 shows IC50 below 400 nM.
### Response f

### Prompt Please let me know if CCCCc1ccc(N(Cc2ccc(C(=O)Nc3nn[nH]n3)cc2)C(=O)Nc2cccc(S(C)(=O)=O)c2)cc1 shows IC50 below 400 nM.
### Response t

### Prompt Please let me know if CCCCNS(=O)(=O)c1ccc(NC(=O)N(Cc2ccc(C(=O)NCCC(=O)O)cc2)[C@H]2CC[C@H](C(C)(C)C)CC2)cc1 shows IC50 below 400 nM.
### Response f

---

subjectOfTest: human glucagon receptor (Homo sapiens)
Construct: expressed in transfected cells; host or cells: BHK (baby hamster kidney) cells
experimentDescription: Glucagon Binding Assay (III)
conditionsUsed: BHK cell membranes, WGA SPA beads, 125I-glucagon; read-out: Glu Bd Assay (III) IC50
Protocol: BHK (baby hamster kidney cell line) cells were transfected with the human glucagon receptor and a membrane preparation of the cells was prepared. All steps in the membrane preparation were kept on ice or performed at 4° C. BHK cells were harvested and centrifuged. […] The glucagon binding assay was carried out in opti plates (Polystyrene Microplates, Packard). […] The opti plates were counted in a Topcounter. Non-specific binding was determined with 500 nM of glucagon.
pIC50: −log10 of the molar value.
Short version: pIC50 at least 6 is True, less is False.

Some solved entries appear below for comparison.
* CCCCOC(=O)c1ccc(NC(=O)N(Cc2ccc(C(=O)NCCC(=O)O)cc2)C2CCC(C(C)C)CC2)cc1 (stereo not shown) | True
* CC(C)(C)C1CCC(N(Cc2ccc(C(=O)NCCC(=O)O)cc2)C(=O)Nc2ccc3c(c2)C(=O)N(CC2CC2)C3=O)CC1 (stereo not shown) | True
* COc1ccc(NC(=O)N(Cc2ccc(C(=O)NCCC(=O)O)cc2)C2CCC(C(C)(C)C)CC2)cc1 (stereo not shown) [Example 59] | False

### Prompt Identify whether the reported pIC50 of the following molecule is 6 or greater: O=C(O)c1ccc2nc(NC(=O)N(Cc3ccc(C(=O)Nc4nn[nH]n4)cc3)c3ccc(C4CCCCC4)cc3)sc2c1
### Response False

### Prompt Identify whether the reported pIC50 of the following molecule is 6 or greater: Cn1nnc(-c2cccc(NC(=O)N(Cc3ccc(C(=O)Nc4nn[nH]n4)cc3)c3ccc(C4CCCCC4)cc3)c2)n1
### Response True

### Prompt Identify whether the reported pIC50 of the following molecule is 6 or greater: O=C(Nc1nn[nH]n1)c1ccc(CN(C(=O)Nc2ccc3c(c2)C(=O)N(CC2CC2)C3=O)c2ccc(C3=CCCCC3)cc2)cc1
### Response True

### Prompt Identify whether the reported pIC50 of the following molecule is 6 or greater: O=C(Nc1nn[nH]n1)c1ccc(CN(C(=O)Cc2cccc(OC(F)(F)F)c2)c2ccc(C3CCCCC3)cc2)cc1
### Response True

---

subjectOfTest: human glucagon receptor (Homo sapiens)
Construct: expressed in transfected cells; host or cells: BHK (baby hamster kidney) cells
experimentDescription: Glucagon Binding Assay (III)
conditionsUsed: BHK cell membranes, WGA SPA beads, 125I-glucagon; read-out: Glu Bd Assay (III) IC50
pIC50: −log10 of the molar value.
Short version: pIC50 at least 6 is label 1, less is label 0.

Some solved entries appear below for comparison.
- CC(C)(C)c1ccc(N(Cc2ccc(C(=O)NCCC(=O)O)cc2)C(=O)Oc2cccc(OC(F)(F)F)c2)cc1: label 1
- CS(=O)(=O)Cc1cccc(NC(=O)N(Cc2ccc(C(=O)Nc3nn[nH]n3)cc2)c2ccc(C3CCCCC3)cc2)c1: label 1
- CC(C)(C)c1ccc(N(Cc2ccc(C(=O)Nc3nn[nH]n3)cc2)C(=O)Oc2ccc(S(C)(=O)=O)cc2)cc1: label 0
- O=C(O)CCNC(=O)c1ccc(CN(C(=O)c2cccc(C(F)(F)F)c2)c2ccc(C3CCCCC3)cc2)cc1: label 1
- O=C(Nc1nn[nH]n1)c1ccc(CN(C(=O)CCOc2ccccc2)c2ccc(C3CCCCC3)cc2)cc1: label 0
- CC(Oc1cccc(Cl)c1)C(=O)N(Cc1ccc(C(=O)Nc2nn[nH]n2)cc1)c1ccc(C2CCCCC2)cc1 (stereo not shown): label 1

Now consider a different molecule.
### Prompt Identify whether the reported pIC50 of the following molecule is 6 or greater: CC(C)(C)C1CCC(N(Cc2ccc(C(=O)NCCC(=O)O)cc2)C(=O)Oc2cccc(OC(F)(F)F)c2)CC1 (stereo not shown)
### Response label 1

---

subjectOfTest: human glucagon receptor (Homo sapiens)
Construct: expressed in transfected cells; host or cells: BHK (baby hamster kidney) cells
experimentDescription: Glucagon Binding Assay (III)
conditionsUsed: BHK cell membranes, WGA SPA beads, 125I-glucagon; read-out: Glu Bd Assay (III) IC50
Protocol: BHK (baby hamster kidney cell line) cells were transfected with the human glucagon receptor and a membrane preparation of the cells was prepared. All steps in the membrane preparation were kept on ice or performed at 4° C. BHK cells were harvested and centrifuged. […] The glucagon binding assay was carried out in opti plates (Polystyrene Microplates, Packard). […] The opti plates were counted in a Topcounter. Non-specific binding was determined with 500 nM of glucagon.
Entries annotated with measured pIC50
Please keep in mind that pIC50 is minus log10 of the molar concentration; only the number is needed.

Use these answered entries as a reference point.
• CS(=O)(=O)c1ccc(NC(=O)N(Cc2ccc(C(=O)Nc3nn[nH]n3)cc2)c2ccc(C3CCCCC3)cc2)s1 = 7.55
• CC(Oc1ccc(OC(F)(F)F)cc1)C(=O)N(Cc1ccc(C(=O)Nc2nn[nH]n2)cc1)CC(c1ccccc1)c1ccccc1 (centres unmarked) = 5.40
• CSc1cccc(NC(=O)N(Cc2ccc(C(=O)Nc3nn[nH]n3)cc2)c2ccc(N3CCCCC3)cc2)c1 = 6.10
• O=C(Nc1nn[nH]n1)c1ccc(CN(C(=O)/C=C/c2ccccc2Cl)c2ccc(N3CCCCC3)cc2)cc1 = 6.22
• CC(C)(C)c1ccc(N(Cc2ccc(C(=O)Nc3nn[nH]n3)cc2)C(=O)Nc2ccc3c(c2)S(=O)(=O)CC3)cc1 = 5.77
• CC(NC(=O)N(Cc1ccc(C(=O)Nc2nn[nH]n2)cc1)c1ccc(C2CCCCC2)cc1)c1ccc(Cl)cc1 (single isomer, unassigned) [Example 337] = 7.66

For record CC(C)(C)C1CCC(N(Cc2ccc(C(=O)Nc3nn[nH]n3)cc2)C(=O)Nc2ccc(OC(F)(F)F)c(S(C)(=O)=O)c2)CC1 (centres unmarked) the listed pIC50 is 7.74

For record CC(C)(C)C1CCC(N(Cc2ccc(C(=O)Nc3nn[nH]n3)cc2)C(=O)CCCc2ccccc2)CC1 (centres unmarked) the listed pIC50 is 7.33

For record CCN(CC)C(=O)C1CCC(N(Cc2ccc(C(=O)NCCC(=O)O)cc2)C(=O)Nc2ccc(OC(F)(F)F)cc2)CC1 (centres unmarked) the listed pIC50 is 6.11

For record CC(C)(C)C1CCC(N(Cc2ccc(C(=O)NCCC(=O)O)cc2)C(=O)Nc2ccc(Oc3ccccc3)nc2)CC1 (centres unmarked) the listed pIC50 is 6.84

For record O=C(Nc1nn[nH]n1)c1ccc(CN(C(=O)Nc2cccc(OC(F)(F)F)c2)c2ccc(C3CCCCC3)cc2)cc1 the listed pIC50 is 7.80

For record CC(C)(C)C1CCC(N(Cc2ccc(C(=O)NCCC(=O)O)cc2)C(=O)Nc2ccc(Cl)cc2)CC1 (centres unmarked) the listed pIC50 is 6.34

For record CC(C)(C)[C@H]1CC[C@H](N(Cc2ccc(C(=O)Nc3nn[nH]n3)cc2)C(=O)Nc2ccc(OCC3CC3)cc2C(F)(F)F)CC1 the listed pIC50 is 6.54

For record CC(C(=O)N(Cc1ccc(C(=O)Nc2nn[nH]n2)cc1)C1CCC(C(C)(C)C)CC1)c1ccccc1 (centres unmarked) the listed pIC50 is 6.42
